- target.under.test: T1, human GPC3 (human, UniProt P51654 25-563)
- T1 construct: range 25-563; soluble analyte; also called soluble human GPC3; glypican 3
- protocol.details: SPR
outcome.measure: Kd (nM)
I only need the number, in nM, no unit after it.

In plain terms, H0610-G1dh/none-Hi-Kn010G3/L0145-k0 (antibody, V domains shown, one-arm) VH: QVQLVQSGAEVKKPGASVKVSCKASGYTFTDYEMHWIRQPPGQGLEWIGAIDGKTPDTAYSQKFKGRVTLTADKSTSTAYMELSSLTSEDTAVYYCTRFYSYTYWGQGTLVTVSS VL: DIVMTQSPLSLPVTPGEPASISCRSSQSLVHSNRNTYLHWYQQKPGQAPRLLIYKVSNRFRGVPDRFSGSGSGTDFTLKISRVEAEDVGVYYCGQGTQVPYTFGQGTKLEIK has a documented Kd of 2.66

Quick note, Kd for H0610-G1dh/none-Hi-Kn010G3/L0226-k0 (antibody, V domains shown, one-arm) VH: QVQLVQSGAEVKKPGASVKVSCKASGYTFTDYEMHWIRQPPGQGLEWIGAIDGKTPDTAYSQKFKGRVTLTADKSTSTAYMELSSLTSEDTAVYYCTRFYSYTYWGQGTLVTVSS VL: DIVMTQSPLSLPVTPGEPASISCRSSQSPVHSNRNTYIHWYQQKPGQAPRLLIYKVSNRFSGVPDRFSGSGSGTDFTLKISRVEAEDVGVYYCIQGTQVPYTFGQGTKLEIK landed at 0.093
